system: MCF7 complex spheroid growth, % test/control; test: Anticancer human tumor MCF7 cell line growth inhibition [Asc]; conditions: second compound 0.1 µM; first compound 0.1 µM; stronger effect = lower value;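 further: spheroids exposed to compounds for 7 days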;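 on viability, T/C: 100% = DMSO vehicle control wells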
List of viability, T/C values.

Entry C#Cc1c(F)ccc2cc(O)cc(-c3ncc4c(N5CC6CCC(C5)N6)nc(OCC56CCCN5CC(F)C6)nc4c3F)c12 (configuration not stated) + Cc1c(S(C)(=O)=O)c(-c2cc(F)cc(N3CCN(c4ccc(NS(=O)(=O)c5ccc(NC(CCN6CCC(C(=O)OCCCP(=O)(O)O)CC6)CSc6ccccc6)c(S(=O)(=O)C(F)(F)F)c5)cc4)CC3)c2)c(-c2ccc(Cl)cc2)n1C(C)C , viability, T/C reported as 103%

Entry CCN1CCN(Cc2ccc(Nc3ncc(F)c(-c4cc(F)c5nc(C)n(C(C)C)c5c4)n3)nc2)CC1 + CNC(C)C(=O)NC1CN(S(=O)(=O)c2cccc(S(=O)(=O)N3CCC4CCC(C(=O)NC(c5ccccc5)c5ccccc5)N4C(=O)C(NC(=O)C(C)NC)C3)c2)CCC2CCC(C(=O)NC(c3ccccc3)c3ccccc3)N2C1=O , viability, T/C reported as 8.76%

Entry O=C(c1ccc(F)c(F)c1Nc1ccc(I)cc1F)N1CC(O)([C@@H]2CCCCN2)C1 + Cc1c(S(C)(=O)=O)c(-c2cc(F)cc(N3CCN(c4ccc(NS(=O)(=O)c5ccc(NC(CCN6CCC(C(=O)OCCCP(=O)(O)O)CC6)CSc6ccccc6)c(S(=O)(=O)C(F)(F)F)c5)cc4)CC3)c2)c(-c2ccc(Cl)cc2)n1C(C)C , viability, T/C reported as 88.8%

Entry COc1c(OCCCN2CCOCC2)ccc2c3n(c(=NC(=O)c4cnc(N)nc4)nc12)CCN3 + CNC(C)C(=O)NC1CN(S(=O)(=O)c2cccc(S(=O)(=O)N3CCC4CCC(C(=O)NC(c5ccccc5)c5ccccc5)N4C(=O)C(NC(=O)C(C)NC)C3)c2)CCC2CCC(C(=O)NC(c3ccccc3)c3ccccc3)N2C1=O , viability, T/C reported as 12%

Entry C=C(F)C(=O)N1CCN(c2nc(OCC3CCCN3C)nc3c2CCN(c2cccc4cccc(Cl)c24)C3)CC1CC#N (configuration not stated) + CNC(C)C(=O)NC1CN(S(=O)(=O)c2cccc(S(=O)(=O)N3CCC4CCC(C(=O)NC(c5ccccc5)c5ccccc5)N4C(=O)C(NC(=O)C(C)NC)C3)c2)CCC2CCC(C(=O)NC(c3ccccc3)c3ccccc3)N2C1=O , viability, T/C reported as 10.8%

Entry C=CC(=O)N1CCN(c2nc(=O)n(-c3c(C)ccnc3C(C)C)c3nc(-c4c(O)cccc4F)c(F)cc23)C(C)C1 (configuration not stated) + CNC(C)C(=O)NC1CN(S(=O)(=O)c2cccc(S(=O)(=O)N3CCC4CCC(C(=O)NC(c5ccccc5)c5ccccc5)N4C(=O)C(NC(=O)C(C)NC)C3)c2)CCC2CCC(C(=O)NC(c3ccccc3)c3ccccc3)N2C1=O , viability, T/C reported as 12%

Lab note: next compound to report on.
Entry NC1CCC(NC2CC2c2ccccc2)CC1 (configuration not stated) + Cc1c(S(C)(=O)=O)c(-c2cc(F)cc(N3CCN(c4ccc(NS(=O)(=O)c5ccc(NC(CCN6CCC(C(=O)OCCCP(=O)(O)O)CC6)CSc6ccccc6)c(S(=O)(=O)C(F)(F)F)c5)cc4)CC3)c2)c(-c2ccc(Cl)cc2)n1C(C)C , viability, T/C reported as 97.1%

----------
test system: MCF7 complex spheroid growth, % test/control; assay: Anticancer human tumor MCF7 cell line growth inhibition [Asc]; conditions: second compound 0.0316 µM; first compound 0.00316 µM; stronger effect = lower value;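 further: spheroids exposed to compounds for 7 days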;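 on viability, T/C: 100% = DMSO vehicle control wells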
List of viability, T/C values.
Expressed in %, but write only the number.

Examples with answers:
Entry CCN1CCN(Cc2ccc(Nc3ncc(F)c(-c4cc(F)c5nc(C)n(C(C)C)c5c4)n3)nc2)CC1 + CNC(C)C(=O)NC1CN(S(=O)(=O)c2cccc(S(=O)(=O)N3CCC4CCC(C(=O)NC(c5ccccc5)c5ccccc5)N4C(=O)C(NC(=O)C(C)NC)C3)c2)CCC2CCC(C(=O)NC(c3ccccc3)c3ccccc3)N2C1=O , viability, T/C reported as 14.4

Entry COc1c(OCCCN2CCOCC2)ccc2c3n(c(=NC(=O)c4cnc(N)nc4)nc12)CCN3 + Cc1c(S(C)(=O)=O)c(-c2cc(F)cc(N3CCN(c4ccc(NS(=O)(=O)c5ccc(NC(CCN6CCC(C(=O)OCCCP(=O)(O)O)CC6)CSc6ccccc6)c(S(=O)(=O)C(F)(F)F)c5)cc4)CC3)c2)c(-c2ccc(Cl)cc2)n1C(C)C , viability, T/C reported as 89.8

Lab note: next molecule to report on.
Entry Cn1ncnc1[C@H]1c2n[nH]c(=O)c3cc(F)cc(c23)N[C@@H]1c1ccc(F)cc1 + Cc1c(S(C)(=O)=O)c(-c2cc(F)cc(N3CCN(c4ccc(NS(=O)(=O)c5ccc(NC(CCN6CCC(C(=O)OCCCP(=O)(O)O)CC6)CSc6ccccc6)c(S(=O)(=O)C(F)(F)F)c5)cc4)CC3)c2)c(-c2ccc(Cl)cc2)n1C(C)C , viability, T/C reported as 74.6

----------
system: MCF7 complex spheroid growth, % test/control; assay: Anticancer human tumor MCF7 cell line growth inhibition [Asc]; conditions: second compound 0.0316 µM; first compound 0.0316 µM; stronger effect = lower value;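 further: spheroids exposed to compounds for 7 days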;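 on viability, T/C: 100% = DMSO vehicle control wells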
List of viability, T/C values.
Expressed in %, but write only the number.

Examples with answers:
Entry CNC(C)C(=O)NC1CN(S(=O)(=O)c2cccc(S(=O)(=O)N3CCC4CCC(C(=O)NC(c5ccccc5)c5ccccc5)N4C(=O)C(NC(=O)C(C)NC)C3)c2)CCC2CCC(C(=O)NC(c3ccccc3)c3ccccc3)N2C1=O (stereo not drawn) + Cc1c(S(C)(=O)=O)c(-c2cc(F)cc(N3CCN(c4ccc(NS(=O)(=O)c5ccc(NC(CCN6CCC(C(=O)OCCCP(=O)(O)O)CC6)CSc6ccccc6)c(S(=O)(=O)C(F)(F)F)c5)cc4)CC3)c2)c(-c2ccc(Cl)cc2)n1C(C)C , viability, T/C reported as 15.6

Entry O=C(c1cc(Cc2n[nH]c(=O)c3ccccc23)ccc1F)N1CCN(C(=O)C2CC2)CC1 + Cc1c(S(C)(=O)=O)c(-c2cc(F)cc(N3CCN(c4ccc(NS(=O)(=O)c5ccc(NC(CCN6CCC(C(=O)OCCCP(=O)(O)O)CC6)CSc6ccccc6)c(S(=O)(=O)C(F)(F)F)c5)cc4)CC3)c2)c(-c2ccc(Cl)cc2)n1C(C)C , viability, T/C reported as 95.8

Lab note: next molecule to report on.
Entry O=C(c1ccc(F)c(F)c1Nc1ccc(I)cc1F)N1CC(O)([C@@H]2CCCCN2)C1 + Cc1c(S(C)(=O)=O)c(-c2cc(F)cc(N3CCN(c4ccc(NS(=O)(=O)c5ccc(NC(CCN6CCC(C(=O)OCCCP(=O)(O)O)CC6)CSc6ccccc6)c(S(=O)(=O)C(F)(F)F)c5)cc4)CC3)c2)c(-c2ccc(Cl)cc2)n1C(C)C , viability, T/C reported as 88.6

----------
system: MCF7 complex spheroid growth, % test/control; test: Anticancer human tumor MCF7 cell line growth inhibition [Asc]; settings: curve of first compound; second compound 0.3 µM;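 further: spheroids exposed to compounds for 7 days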
pIC50: −log10 of the molar value.
endpoint: pIC50

Entry C=CC(=O)N1CCN(c2nc(=O)n(-c3c(C)ccnc3C(C)C)c3nc(-c4c(O)cccc4F)c(F)cc23)C(C)C1 (stereo not drawn) + CCN1C(C(=O)NC23CCC(C(=O)O)(CC2)CC3)C(c2cccc(Cl)c2F)C2(C(=O)Nc3cc(Cl)ccc32)C12CCCCC2 , pIC50 reported as > 7.50

More entries:
Entry NC1CCC(NC2CC2c2ccccc2)CC1 (stereo not drawn) + CCN1C(C(=O)NC23CCC(C(=O)O)(CC2)CC3)C(c2cccc(Cl)c2F)C2(C(=O)Nc3cc(Cl)ccc32)C12CCCCC2 , pIC50 reported as > 9.50

Entry COc1c(OCCCN2CCOCC2)ccc2c3n(c(=NC(=O)c4cnc(N)nc4)nc12)CCN3 + CCN1C(C(=O)NC23CCC(C(=O)O)(CC2)CC3)C(c2cccc(Cl)c2F)C2(C(=O)Nc3cc(Cl)ccc32)C12CCCCC2 , pIC50 reported as > 8.50

----------
test system: MCF7 complex spheroid growth, % test/control; assay: Anticancer human tumor MCF7 cell line growth inhibition [Asc]; conditions: second compound 0.03 µM; first compound 0.316 µM; stronger effect = lower value;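 further: spheroids exposed to compounds for 7 days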;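 on viability, T/C: 100% = DMSO vehicle control wells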
endpoint: viability, T/C (%)
Expressed in %, but write only the number.

Examples with answers:
Entry C=C(F)C(=O)N1CCN(c2nc(OCC3CCCN3C)nc3c2CCN(c2cccc4cccc(Cl)c24)C3)CC1CC#N (stereo not drawn) + CCN1C(C(=O)NC23CCC(C(=O)O)(CC2)CC3)C(c2cccc(Cl)c2F)C2(C(=O)Nc3cc(Cl)ccc32)C12CCCCC2 , viability, T/C reported as 109

Entry COc1c(OCCCN2CCOCC2)ccc2c3n(c(=NC(=O)c4cnc(N)nc4)nc12)CCN3 + CCN1C(C(=O)NC23CCC(C(=O)O)(CC2)CC3)C(c2cccc(Cl)c2F)C2(C(=O)Nc3cc(Cl)ccc32)C12CCCCC2 , viability, T/C reported as 7.5

Entry C=CC(=O)N1CCN(c2nc(=O)n(-c3c(C)ccnc3C(C)C)c3nc(-c4c(O)cccc4F)c(F)cc23)C(C)C1 (stereo not drawn) + CCN1C(C(=O)NC23CCC(C(=O)O)(CC2)CC3)C(c2cccc(Cl)c2F)C2(C(=O)Nc3cc(Cl)ccc32)C12CCCCC2 , viability, T/C reported as 83.3

More entries:
Entry O=C(c1cc(Cc2n[nH]c(=O)c3ccccc23)ccc1F)N1CCN(C(=O)C2CC2)CC1 + CCN1C(C(=O)NC23CCC(C(=O)O)(CC2)CC3)C(c2cccc(Cl)c2F)C2(C(=O)Nc3cc(Cl)ccc32)C12CCCCC2 , viability, T/C reported as 87

Entry C#Cc1c(F)ccc2cc(O)cc(-c3ncc4c(N5CC6CCC(C5)N6)nc(OCC56CCCN5CC(F)C6)nc4c3F)c12 (stereo not drawn) + CCN1C(C(=O)NC23CCC(C(=O)O)(CC2)CC3)C(c2cccc(Cl)c2F)C2(C(=O)Nc3cc(Cl)ccc32)C12CCCCC2 , viability, T/C reported as 91.8

Entry O=C(c1ccc(F)c(F)c1Nc1ccc(I)cc1F)N1CC(O)([C@@H]2CCCCN2)C1 + CCN1C(C(=O)NC23CCC(C(=O)O)(CC2)CC3)C(c2cccc(Cl)c2F)C2(C(=O)Nc3cc(Cl)ccc32)C12CCCCC2 , viability, T/C reported as 81.4

Entry CNC(C)C(=O)NC1CN(S(=O)(=O)c2cccc(S(=O)(=O)N3CCC4CCC(C(=O)NC(c5ccccc5)c5ccccc5)N4C(=O)C(NC(=O)C(C)NC)C3)c2)CCC2CCC(C(=O)NC(c3ccccc3)c3ccccc3)N2C1=O (stereo not drawn) + CCN1C(C(=O)NC23CCC(C(=O)O)(CC2)CC3)C(c2cccc(Cl)c2F)C2(C(=O)Nc3cc(Cl)ccc32)C12CCCCC2 , viability, T/C reported as 15.5

Entry CCN1CCN(Cc2ccc(Nc3ncc(F)c(-c4cc(F)c5nc(C)n(C(C)C)c5c4)n3)nc2)CC1 + CCN1C(C(=O)NC23CCC(C(=O)O)(CC2)CC3)C(c2cccc(Cl)c2F)C2(C(=O)Nc3cc(Cl)ccc32)C12CCCCC2 , viability, T/C reported as 59
